# assay notes: Varlitinib plasma pharmacokinetics in patients, cycle 1
# Assay type: in vivo
# particulars: human, oral, mean AUC0–24h, 400-mg intermittent dosing, cohorts pooled
recorded metric: AUC(0-t) (ng·h/mL)
Give a bare numeral; the unit ng·h/mL is implied.

Item C[C@@H]1COC(Nc2ccc3ncnc(Nc4ccc(OCc5nccs5)c(Cl)c4)c3c2)=N1 [varlitinib] : provide AUC(0-t) 75600
